Attribution: patent US20140005163A1

- Test system: PKB Ser473 phosphorylation in Rat1-myr-HA-p110 alpha cells
- assay.details: Reverse protein array assay, PKB Ser473 phosphorylation in Rat1-myr-p110 alpha cells
- Assay type: cell-based
- study.conditions: 0.5 h, pAkt Ser473, 30 minutes compound incubation, read-out: p-PKB IC50
pIC50: −log10 of the molar value.
measured.property: pIC50

{"compound": "Cc1nn(C)cc1-n1c(=O)n(C)c2cnc3ccc(-c4cnc5cc[nH]c5c4)cc3c21", "measured.target": "PKB Ser473 phosphorylation in Rat1-myr-HA-p110 alpha cells", "pIC50": 7.89}
{"compound": "Cc1cc(-n2c(=O)n(C)c3cnc4ccc(-c5cncc(N6CCOCC6)c5)cc4c32)n(C)n1", "measured.target": "PKB Ser473 phosphorylation in Rat1-myr-HA-p110 alpha cells", "pIC50": 7.23}
{"compound": "CCOc1ccc(-c2ccc3ncc4c(c3c2)n(-c2c(C)nn(CC(=O)N(C)C)c2C)c(=O)n4C)cn1", "measured.target": "PKB Ser473 phosphorylation in Rat1-myr-HA-p110 alpha cells", "pIC50": 6.89}
{"compound": "Cc1nn(C(C)C)cc1-n1c(=O)n(C)c2cnc3ccc(-c4cnc(Cl)c(N)c4)cc3c21", "measured.target": "PKB Ser473 phosphorylation in Rat1-myr-HA-p110 alpha cells", "pIC50": 8.15}
{"compound": "Cc1nn(C)cc1-n1c(=O)n(C)c2cnc3ccc(-c4cnc5c(c4)nc(C)n5C)cc3c21", "measured.target": "PKB Ser473 phosphorylation in Rat1-myr-HA-p110 alpha cells", "pIC50": 6.47}
{"compound": "Cc1nn(C)cc1-n1c(=O)n(C)c2cnc3ccc(-c4ccnc(OC(C)C)c4)cc3c21", "measured.target": "PKB Ser473 phosphorylation in Rat1-myr-HA-p110 alpha cells", "pIC50": 6.61}
{"compound": "Cc1nn(C)cc1-n1c(=O)n(C)c2cnc3ccc(-c4cncc(C(C)O)c4)cc3c21 (racemic)", "measured.target": "PKB Ser473 phosphorylation in Rat1-myr-HA-p110 alpha cells", "pIC50": 6.97}
{"compound": "CCn1cc(-n2c(=O)n(C)c3cnc4ccc(-c5ccc(-n6cccn6)cc5)cc4c32)c(C)n1", "measured.target": "PKB Ser473 phosphorylation in Rat1-myr-HA-p110 alpha cells", "pIC50": 8.10}
{"compound": "COc1nc2cc(-c3ccc4ncc5c(c4c3)n(-c3cn(C)nc3C)c(=O)n5C)cnc2n1C", "measured.target": "PKB Ser473 phosphorylation in Rat1-myr-HA-p110 alpha cells", "pIC50": 7.43}
{"compound": "CCOc1ccc(-c2ccc3ncc4c(c3c2)n(-c2cn(C)nc2Cl)c(=O)n4C)cn1", "measured.target": "PKB Ser473 phosphorylation in Rat1-myr-HA-p110 alpha cells", "pIC50": 7.82}

[P] CCn1cc(-n2c(=O)n(C)c3cnc4ccc(-c5cncc(C(C)(C)C#N)c5)cc4c32)c(C)n1
[Q] COCc1cc(-c2ccc3ncc4c(c3c2)n(-c2cn(C)nc2Cl)c(=O)n4C)cnc1N
Given P and given Q , which shows the smaller recorded pIC50? Respond with the label that goes with your answer. P

[P] Cc1nn(C)cc1-n1c(=O)n(C)c2cnc3ccc(-c4cnccn4)cc3c21
[Q] COc1ccc(-c2ccc3ncc4c(c3c2)n(-c2c(C)nn(C)c2C)c(=O)n4C)cc1OC
[R] Cc1nn(C)cc1-n1c(=O)n(C)c2cnc3ccc(-c4ccc(N)nc4)cc3c21
[S] Cc1nn(CC(=O)N2CCCC2)cc1-n1c(=O)n(C)c2cnc3ccc(-c4cnc(N5CCCC5)nc4)cc3c21
Would you mind ranking these compounds by ascending pIC50? Respond with an ordered listing of the labels, as requested. P, S, Q, R

[a] CNC(=O)c1ccc(-c2ccc3ncc4c(c3c2)n(-c2cn(C(C)C)nc2C)c(=O)n4C)cn1
[b] Cn1cc(-n2c(=O)n(C)c3cnc4ccc(-c5cncc(C(C)(C)O)c5)cc4c32)c(Cl)n1
Given a and given b , which shows the smaller recorded pIC50? Respond with the label that goes with your answer. a
(a: 7.55, b: 7.89)

[I] CCOc1cc(-c2ccc3ncc4c(c3c2)n(-c2cn(C)nc2C)c(=O)n4C)cnc1CO
[II] COc1ncc(-c2ccc3ncc4c(c3c2)n(-c2cc(C)nn2C)c(=O)n4C)c(OC)n1
[III] CCn1cc(-n2c(=O)n(C)c3cnc4ccc(-c5cnc(COC)c(OC)c5)cc4c32)c(C)n1
[IV] Cc1cnn(C)c1-n1c(=O)n(C)c2cnc3ccc(-c4cncc(OC(C)C)c4)cc3c21
Order these by pIC50, descending, and give the full ranking. Respond with an ordered listing of the labels, as requested. II, I, III, IV

====

- measured.target: PI3K delta (Homo sapiens, UniProt O00329)
- Construct: for the full-length p110-d subunit are generated and fused by overlapping PCR; p85(iSH2) fusion partner (see partner chain) (N); His tag (C); Tn5 (Trichoplusia ni) or TiniPro insect cells
- Sequence (O00329 with tags, fused parts or gaps limits assumed): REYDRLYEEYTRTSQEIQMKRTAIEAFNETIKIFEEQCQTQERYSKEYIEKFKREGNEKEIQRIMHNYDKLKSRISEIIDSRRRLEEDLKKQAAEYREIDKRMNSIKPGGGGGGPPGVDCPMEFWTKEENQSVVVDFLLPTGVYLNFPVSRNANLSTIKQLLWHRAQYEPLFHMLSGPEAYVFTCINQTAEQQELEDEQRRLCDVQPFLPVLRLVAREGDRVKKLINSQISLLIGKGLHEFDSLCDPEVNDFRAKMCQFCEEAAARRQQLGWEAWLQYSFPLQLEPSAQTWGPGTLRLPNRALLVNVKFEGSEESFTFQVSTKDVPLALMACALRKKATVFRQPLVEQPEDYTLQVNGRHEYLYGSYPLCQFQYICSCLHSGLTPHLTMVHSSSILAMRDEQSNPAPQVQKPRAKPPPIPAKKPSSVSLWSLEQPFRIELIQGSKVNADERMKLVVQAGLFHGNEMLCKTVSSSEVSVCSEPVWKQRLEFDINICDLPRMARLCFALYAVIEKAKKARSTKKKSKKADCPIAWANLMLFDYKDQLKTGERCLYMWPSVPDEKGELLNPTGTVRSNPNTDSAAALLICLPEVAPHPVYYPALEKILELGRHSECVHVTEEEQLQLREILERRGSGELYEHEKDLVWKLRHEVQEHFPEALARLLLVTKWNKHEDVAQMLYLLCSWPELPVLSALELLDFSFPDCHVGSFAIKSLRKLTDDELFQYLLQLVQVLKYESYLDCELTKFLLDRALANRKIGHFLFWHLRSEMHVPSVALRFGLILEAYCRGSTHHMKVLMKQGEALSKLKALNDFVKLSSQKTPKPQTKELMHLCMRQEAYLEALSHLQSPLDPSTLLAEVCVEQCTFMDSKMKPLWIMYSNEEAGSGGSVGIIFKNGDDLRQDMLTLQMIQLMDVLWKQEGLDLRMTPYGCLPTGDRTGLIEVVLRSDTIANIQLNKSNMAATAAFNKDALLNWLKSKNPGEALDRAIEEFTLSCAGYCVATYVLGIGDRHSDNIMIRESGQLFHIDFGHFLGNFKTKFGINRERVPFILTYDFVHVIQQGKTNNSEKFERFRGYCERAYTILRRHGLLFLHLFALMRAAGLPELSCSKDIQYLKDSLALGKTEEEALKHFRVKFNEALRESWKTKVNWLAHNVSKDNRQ
- assay.details: PI3K delta kinase assay (Kinase-Glo luminescence)
- Description: In a more preferred assay, the kinase reaction is performed in a final volume of 10 μL per well of a low volume non binding CORNING, 384 well black plate (Cat. No. #3676). The final concentrations of ATP and phosphatidyl inositol (PI) in the assay are 1 μM and 10 μg/mL respectively. […] IC50 is determined by a four parameter curve fitting routine that comes along with “excel fit”. […] Alternatively, IC50 values are calculated using idbsXLfit model 204, which is a 4 parameter logistic model.
pIC50: −log10 of the molar value.
measured.property: pIC50

{"smiles.repr": "Cc1nn(CC(=O)N(C)C)c(C)c1-n1c(=O)n(C)c2cnc3ccc(-c4ccc(-n5cccn5)cc4)cc3c21", "test.result": 6.22}
{"smiles.repr": "Cc1nn(C)cc1-n1c(=O)n(C)c2cnc3ccc(-c4cncc(CN)c4)cc3c21", "test.result": 6.36}
{"smiles.repr": "COCCOc1ccc(-c2ccc3ncc4c(c3c2)n(-c2cn(C)nc2C)c(=O)n4C)cn1", "test.result": 6.94}
{"smiles.repr": "CNc1ncc(-c2ccc3ncc4c(c3c2)n(-c2cn(C)nc2C)c(=O)n4C)cc1Cl", "test.result": 7.80}

[1] CCOc1ccc(-c2ccc3ncc4c(c3c2)n(-c2cn(C)nc2C)c(=O)n4C)cn1
[2] CC(=O)Nc1cc(-c2ccc3ncc4c(c3c2)n(-c2cn(C)nc2C)c(=O)n4C)cnc1Cl
[3] COc1ncc(-c2ccc3ncc4c(c3c2)n(-c2cn(C)nc2C)c(=O)n4C)cc1F
[4] Cc1cc(-n2c(=O)n(C)c3cnc4ccc(-c5cnc(C)c(O)c5)cc4c32)n(C)n1
Order these by pIC50, descending, and give the full ranking. Respond with an ordered listing of the labels, as requested. 4, 3, 1, 2
(4: 8.22, 3: 7.82, 1: 7.43, 2: 7.09)

====

- assay.details: Solubility at pH 6.8
- Type: physicochemical
- study.conditions: pH 6.8, aqueous buffer, thermodynamic from solid; read-out: solubility
measured.property: solubility (µg/mL)

Below, 5 compounds whose answers are already recorded.
{"compound": "Cc1nn(C(C)C)cc1-n1c(=O)n(C)c2cnc3ccc(-c4cnc(N)c(CO)c4)cc3c21 [Example 169.1]", "solubility, µg/mL": 289}
{"compound": "COC(=O)c1ccc(-c2ccc3ncc4c(c3c2)n(-c2cn(C)nc2C)c(=O)n4C)cn1 [Example 100]", "solubility, µg/mL": 12}
{"compound": "Cc1ncc(-c2ccc3ncc4c(c3c2)n(-c2cn(C)nc2C)c(=O)n4C)cc1OC(CF)CF [Example 189]", "solubility, µg/mL": 15}
{"compound": "Cc1cnn(C)c1-n1c(=O)n(C)c2cnc3ccc(-c4cncc(OC(C)C)c4)cc3c21 [Example 58.3]", "solubility, µg/mL": 6}
{"compound": "CCn1cc(-n2c(=O)n(C)c3cnc4ccc(-c5cnc(COC)c(OC(C)C)c5)cc4c32)c(C)n1 [Example 191.2]", "solubility, µg/mL": 243}

[1] Cc1nn(C)c(C)c1-n1c(=O)n(C)c2cnc3ccc(-c4ccccc4)cc3c21 [Example 37.2]
[2] CNC(=O)c1ccc(-c2ccc3ncc4c(c3c2)n(-c2cn(C(C)C)nc2C)c(=O)n4C)cn1 [Example 15.3]
Given 1 and given 2 , which shows the smaller recorded solubility? Respond with the label that goes with your answer. 2

====

- Test system: PKB Ser473 phosphorylation in Rat1-myr-HA-p110 alpha cells
- assay.details: Reverse protein array assay, PKB Ser473 phosphorylation in Rat1-myr-p110 alpha cells
- Type: cell-based
- study.conditions: 0.5 h, pAkt Ser473, 30 minutes compound incubation, read-out: p-PKB IC50
measured.property: IC50 (nM)

Below, 3 compounds whose answers are already recorded.
{"compound": "Cc1nn(C)cc1-n1c(=O)n(C)c2cnc3ccc(-c4cnc(N)c(C(=O)NC(C)C)c4)cc3c21 [Example 225]", "measured.target": "PKB Ser473 phosphorylation in Rat1-myr-HA-p110 alpha cells", "IC50 [nM]": 80}
{"compound": "CCOc1cc(-c2ccc3ncc4c(c3c2)n(-c2c(C)nn(CCOC)c2C)c(=O)n4C)cnc1C [Example 85.2]", "measured.target": "PKB Ser473 phosphorylation in Rat1-myr-HA-p110 alpha cells", "IC50 [nM]": 187}
{"compound": "Cc1nn(C)cc1-n1c(=O)n(C)c2cnc3ccc(-c4cnc5c(c4)nnn5C)cc3c21 [Example 72]", "measured.target": "PKB Ser473 phosphorylation in Rat1-myr-HA-p110 alpha cells", "IC50 [nM]": 166}

[A] COc1ccc(-c2ccc3ncc4c(c3c2)n(-c2cn(CCO)nc2C)c(=O)n4C)cn1 [Example 103.1]
[B] CCOc1cc(-c2ccc3ncc4c(c3c2)n(-c2cn(CC)nc2C)c(=O)n4C)ccc1OC [Example 28.1]
Given A and given B , which shows the smaller recorded IC50? Respond with the label that goes with your answer. B
(B: 7 nM, A: 47 nM)

[A] Cc1nn(C)cc1-n1c(=O)n(C)c2cnc3ccc(-c4ccc(-n5cccn5)nc4)cc3c21 [Example 79]
[B] Cn1cc(-n2c(=O)n(C)c3cnc4ccc(-c5cncc(C(C)(C)C#N)c5)cc4c32)c(Cl)n1 [Example 220.3]
Given A and given B , which shows the smaller recorded IC50? Respond with the label that goes with your answer. A
(A: 1 nM, B: 6 nM)
